Method summary: In vivo pharmacokinetic analyses in rat, oral dosing
Stated conditions: serum, PO dosing 5 mg/kg
Protocol: One rat is dosed orally (5 mg/kg—dissolved in DMSO/H2O/propylenglycol [1:5:4]) and blood samples are taken from the sublingual venous plexus at 30 min, 1 h, 2 h, 4 h and 6 h. Blood samples are taken in BD Vacutainer SST serum separation tubes, serum is isolated by centrifugation, transferred to micronics tubes and subsequently analysed. […] Standards are prepared in rat serum to cover the analytical range 0.1 to 300 ng/ml. […] Samples are analysed on LC-MS/MS usually overnight. […]
Result type: bioavailability (%)

[[record]]
molecule = "O=C(Cc1c(Cl)c[n+]([O-])cc1Cl)c1ccc(OC(F)F)c2c1OC1(CCOCC1)O2 [compound 106]"
result_type = "bioavailability"
display_unit = "%"
quantitative_readout = 22

